Property: Activity at 2 microgram/ml Without HGF/SF: stimulation; scope: individual compounds
# System: Endothelial cells (HUVECs)
# methodNotes: Endothelial cell (HUVEC) proliferation assay, 3H thymidine incorporation, compound without added growth factor
# Assay type: cell-based, human
# experimentalSetup: 2 microgram/ml, without HGF/SF; stimulation of HUVEC proliferation
property: Activity at 2 microgram/ml Without HGF/SF: stimulation (%)

# compound, recordedNumber
rows = [
    ("CC(C)(C)c1n[nH]c(C(C)(C)C)c1Cc1c(F)cccc1Cl", 51),
    ("Cc1onc(-c2c(Cl)cccc2Cl)c1C(=O)NNC(=O)CON=Cc1ccc(Cl)cc1Cl", 32),
    ("Cc1nn(S(=O)(=O)c2ccc(Cl)c(Cl)c2)c(C)c1Cc1c(F)cccc1Cl", 73),
    ("Cc1nn(-c2onc(-c3c(Cl)cccc3Cl)c2C(=O)NN)c(C)c1Br", 74),
    ("Cc1nn(C(=O)c2ccc(Cl)cc2)c(C)c1Cc1c(F)cccc1Cl", 40),
    ("Cc1n[nH]c(C)c1Cc1c(F)cccc1Cl", 54),
    ("Cc1nn(C)c(C)c1Cc1c(F)cccc1Cl", 50),
]

* * *

Property: Stimulation at 6-12 micrograms/ml Without HGF/SF; scope: individual compounds
# Tested on: Endothelial cells (HUVECs)
# methodNotes: Endothelial cell (HUVEC) proliferation assay, 3H thymidine incorporation, compound without added growth factor
# Assay type: cell-based, human
# experimentalSetup: 6-12 micrograms/ml, without HGF/SF; stimulation of endothelial cell proliferation
property: Stimulation at 6-12 micrograms/ml Without HGF/SF

# compound, target, result
rows = [
    ("C1=C(c2ccccc2)c2ccccc2C1(c1ccccc1)c1ccccc1 [1,1,3-triphenylinedene]", "Endothelial cells (HUVECs)", "50-100% stimulation"),
    ("C[Si](C)(C)c1cccc(-c2ccccc2)c1 [(3-Biphenyl) Trimethyl silane]", "Endothelial cells (HUVECs)", "40% stimulation"),
    ("C(=C1c2ccccc2-c2ccccc2-c2ccccc21)c1ccc(-c2ccccc2)cc1", "Endothelial cells (HUVECs)", "30-40% stimulation"),
    ("c1ccc(-c2cc(-c3ccccc3)cc(-c3ccccc3)c2)cc1 [1,3,5-triphenylbenzene]", "Endothelial cells (HUVECs)", "40-60% stimulation"),
]
